target: Cbl-b (Homo sapiens, UniProt Q13191); construct: Cbl-b-HiBit KI Jurkat Cells were purchased from Promega; host or cells: Cbl-b-HiBiT knock-in Jurkat cells; assay: Cbl-b Degradation Method A (FACS, anti-Cbl-b antibody staining); format: cell-based; conditions: Jurkat, Cbl-b-HiBit KI Jurkat Cells, incubated at least 20 hours; maximum degradation observed; read-out: Cbl-b Degredation Method A Dmax (%)
Sequence (Q13191 whole entry): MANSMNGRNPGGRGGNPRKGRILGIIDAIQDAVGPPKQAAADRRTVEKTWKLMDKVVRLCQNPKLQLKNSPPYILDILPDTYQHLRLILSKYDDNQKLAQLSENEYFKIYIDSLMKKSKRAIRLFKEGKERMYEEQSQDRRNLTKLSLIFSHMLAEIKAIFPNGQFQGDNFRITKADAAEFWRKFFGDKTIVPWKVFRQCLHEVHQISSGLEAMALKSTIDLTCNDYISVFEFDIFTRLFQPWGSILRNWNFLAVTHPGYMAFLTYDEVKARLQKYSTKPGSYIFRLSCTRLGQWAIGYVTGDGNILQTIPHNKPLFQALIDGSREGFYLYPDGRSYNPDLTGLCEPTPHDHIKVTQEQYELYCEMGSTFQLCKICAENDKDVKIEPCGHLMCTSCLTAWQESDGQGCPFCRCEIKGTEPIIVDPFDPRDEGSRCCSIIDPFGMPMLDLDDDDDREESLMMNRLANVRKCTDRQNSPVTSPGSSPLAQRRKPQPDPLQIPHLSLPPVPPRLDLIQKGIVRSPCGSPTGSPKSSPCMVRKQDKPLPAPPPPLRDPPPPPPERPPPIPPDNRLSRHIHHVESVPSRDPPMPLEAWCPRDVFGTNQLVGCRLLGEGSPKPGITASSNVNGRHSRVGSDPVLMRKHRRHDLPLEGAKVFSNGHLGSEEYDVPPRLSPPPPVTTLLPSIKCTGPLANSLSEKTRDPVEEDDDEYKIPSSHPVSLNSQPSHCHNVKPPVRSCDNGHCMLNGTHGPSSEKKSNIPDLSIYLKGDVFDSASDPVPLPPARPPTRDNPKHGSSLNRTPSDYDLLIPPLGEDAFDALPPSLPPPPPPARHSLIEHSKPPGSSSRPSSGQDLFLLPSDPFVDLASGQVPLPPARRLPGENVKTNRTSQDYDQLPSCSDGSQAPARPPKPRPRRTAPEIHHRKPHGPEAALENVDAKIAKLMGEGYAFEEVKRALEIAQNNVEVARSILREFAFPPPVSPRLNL
MEASUREMENT TYPE: Dmax

Cn1cnnc1CC1(c2cccc(N3Cc4c(cc(CN5CC6(CCN(C[C@H]7CC[C@H](OC8CCN(c9ccc%10c(c9F)CN(C9CCC(=O)NC9=O)C%10=O)CC8)CC7)CC6)C5)cc4C(F)(F)F)C3=O)c2)COC1 (some centres unmarked) [Example 6]: > 70%
CC1c2nc(N3CCC(CN4CCC(CN5CCN(Cc6cc7c(c(C(F)(F)F)c6)CN(c6cccc([C@]8(Cc9nncn9C)C[C@@H](C#N)C8)c6)C7=O)C(C)(C)C5)CC4)CC3)ccc2C(=O)N1C1CCC(=O)NC1=O (some centres unmarked) [Example 303]: 35 to 70%
CC(C)n1c(=O)n(C2CCC(=O)NC2=O)c2cccc(N3CCC(O[C@H]4CC[C@H](CN5CCN(Cc6cc7c(c(C(F)(F)F)c6)CN(c6cccc([C@]8(Cc9nncn9C)C[C@@H](C#N)C8)c6)C7=O)C(C)(C)C5)CC4)CC3)c21 (some centres unmarked) [Example 302]: 35 to 70%
Cn1cnnc1CC1(c2cccc(N3Cc4c(cc(CN5CCN(C[C@H]6CC[C@H](OC7CCN(c8ccc9c(c8F)CN(C8CCC(=O)NC8=O)C9=O)CC7)CC6)CC5)cc4C(F)(F)F)C3=O)c2)COC1 (some centres unmarked) [Example 2]: > 70%
C[C@@H]1c2nc(N3CCC(O[C@H]4CC[C@H](CN5CCN(Cc6cc7c(c(C(F)(F)F)c6)CN(c6cccc(C8(Cc9nncn9C)CC(C#N)C8)c6)C7=O)CC5(C)C)CC4)CC3)ccc2C(=O)N1C1CCC(=O)NC1=O (single isomer, unassigned) [Example 311]: 35 to 70%

Ask: Which Dmax is listed for Cn1cnnc1C(c1cccc(N2Cc3c(cc(CN4CCC[C@H](CN5CCN(C[C@H]6CC[C@@H](OC7CCN(c8ccc9c(c8F)CN(C8CCC(=O)NC8=O)C9=O)CC7)CC6)CC5)C4)cc3C(F)(F)F)C2=O)c1)C1CCC1 (some centres unmarked) [Example 158] ?
Result: > 70%

Ask: Continue with Cn1cnnc1C[C@]1(c2cccc(N3Cc4c(cc(CN5CCN(C[C@H]6CC[C@H](OC7CCN(c8ccc9c(c8F)CN(C8CCC(=O)NC8=O)C9=O)CC7)CC6)CC5)cc4C(F)(F)F)C3=O)c2)C[C@H](C#N)C1 (some centres unmarked) [Example 167]
Result: > 70%

Ask: Continue with COc1c(N2CCC(CN3CCC4(CC3)CN(c3cc5c(c(C(F)(F)F)c3)CN(c3cccc(C6(Cc7nncn7C)COC6)c3)C5=O)C4)CC2)ccc2c1CN(C1CCC(=O)NC1=O)C2=O (centres unmarked) [Example 8]
Result: > 70%

Ask: Continue with Cn1cnnc1CC1(c2cccc(N3Cc4c(cc(CN5CCN(C6CC7(C6)CN(c6ccc8c(c6)C(=O)N(C6CCC(=O)NC6=O)C8=O)C7)CC5)cc4C(F)(F)F)C3=O)c2)COC1 (centres unmarked) [Example 107]
Result: < 35%

Ask: Continue with CC1c2nc(N3CCC(O[C@H]4CC[C@H](CN5CCN(Cc6cc7c(c(C(F)(F)F)c6)CN(c6cccc(C8(Cc9nncn9C)COC8)c6)C7=O)CC5(C)C)CC4)CC3)ccc2C(=O)N1C1CCC(=O)NC1=O (mixture of isomers) [Example 236]
Result: > 70%

Ask: Continue with CC1c2nc(N3CCC(O[C@H]4CC[C@H](CN5C[C@@H]6C[C@H]5CN6Cc5cc6c(c(C(F)(F)F)c5)CN(c5cccc([C@]7(Cc8nncn8C)C[C@H](C#N)C7)c5)C6=O)CC4)CC3)ccc2C(=O)N1C1CCC(=O)NC1=O (some centres unmarked) [Example 214]
Result: 35 to 70%

Ask: Continue with Cn1cnnc1CC1(c2cccc(N3Cc4c(cc(N5CC6(CCN(CC7CCN(c8ccc9c(c8)CN(C8CCC(=O)NC8=O)C9=O)CC7)CC6)C5)cc4C(F)(F)F)C3=O)c2)COC1 (centres unmarked) [Example 117]
Result: 35 to 70%

Ask: Continue with CC(C)n1c(=O)n(C2CCC(=O)NC2=O)c2cccc(N3CCC(O[C@H]4CC[C@H](CN5CCC6(CCN(Cc7cc8c(c(C(F)(F)F)c7)CN(c7cccc([C@]9(Cc%10nncn%10C)C[C@@H](C#N)C9)c7)C8=O)CC6)CC5)CC4)CC3)c21 (some centres unmarked) [Example 317]
Result: 35 to 70%

Ask: Continue with Cn1cnnc1CC1(c2cccc(N3Cc4c(cc(CN5CCC[C@H](CN6CCN(C[C@H]7CC[C@@H](OC8CCN(c9ccc%10c(c9F)CN(C9CCC(=O)NC9=O)C%10=O)CC8)CC7)CC6)C5)cc4C(F)(F)F)C3=O)c2)CC1 (some centres unmarked) [Example 162]
Result: > 70%

Ask: Continue with COc1c(N2CCC(O[C@H]3CC[C@H](CN4CCC5(CC4)CN(c4cc6c(c(C(F)(F)F)c4)CN(c4cccc(C7(Cc8nncn8C)COC7)c4)C6=O)C5)CC3)CC2)ccc2c1CN(C1CCC(=O)NC1=O)C2=O (some centres unmarked) [Example 169]
Result: > 70%

Ask: Continue with Cn1cnnc1CC1(c2cccc(N3Cc4c(cc(CN5CCC[C@H](CN6CCC(CN7CCC(CN8CCN(c9ccc%10c(c9F)CN(C9CCC(=O)NC9=O)C%10=O)CC8)CC7)CC6)C5)cc4C(F)(F)F)C3=O)c2)COC1 (some centres unmarked) [Example 74]
Result: > 70%

Ask: Continue with Cn1cnnc1CC1(c2cccc(N3Cc4c(cc(CN5CCN(C[C@H]6CC[C@H](OC7CCN(c8cccc9c8CC(=O)N9C8CCC(=O)NC8=O)CC7)CC6)CC5(C)C)cc4C(F)(F)F)C3=O)c2)CC(C#N)C1 (some centres unmarked) [Example 315]
Result: 35 to 70%
